Biological target: SHP2-C SH2;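 also: peptide library displayed on the E. coli surface as eCPX fusions, selected cells deep-sequenced, score is each peptide's frequency after selection divided by its frequency in the input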
Assay: SH2 binding enrichment of the phosphorylated peptide, bacterial display (enrichment ratio); higher = better substrate or ligand; peptides without Tyr show the background
REPORTED ENDPOINT: SH2 binding enrichment

# SEQUENCE CHAIN, SH2 binding enrichment
records = [
    ("KGEDFYCVTCP [FHL1_Y149_H154P]", 0.644),
    ("RVNSAYQDKVS [ACAN_Y100]", 0.679),
    ("AKKKMYSHKTK [AGXT_Y231_R233H]", 1.42),
    ("APSEFYDGDHD [HDAC3_Y414_N411S]", 0.733),
]

(a) EDKFMYSEFPQ [PTEN_Y240_F241S]
(b) LLIVEYAKYGS [RET_Y806]
Which of these two has the smaller recorded SH2 binding enrichment: a or b ? Please indicate the selected item by its label.
a

(I) SLEKSYELLDG [ACTB_Y240_P243L]
(II) CKLCQYYLDHL [ATRX_Y1849_Y1847C]
(III) EILLSYLRTGY [TGM1_Y365]
(IV) RSRSPYSPVFR [CDK13_Y399_L403F]
Ranking field: SH2 binding enrichment; order: falling. Answer by listing the labels in the order asked for.
II, III, I, IV

(A) MALDIYRASYY [ALK_Y1278_R1275L]
(B) LLSVAYKNVVG [YWHAG_Y49]
(C) DPHECYAKVFD [ALB_Y394]
Would you mind ranking these sequences by ascending SH2 binding enrichment? Answer by listing the labels in the order asked for.
B, A, C

(I) QMRLKYSQSDL [SMC1A_Y714]
(II) MANYVYKAGPS [MAML2_Y515_M514V]
Which of these two has the smaller recorded SH2 binding enrichment: I or II ? Please indicate the selected item by its label.
I
(I: 0.703, II: 1.09)

====

phosphorylation enrichment values for the sequences below.
Target: FGFR1 (UniProt P11362)
Sequence (P11362 whole entry, looked up): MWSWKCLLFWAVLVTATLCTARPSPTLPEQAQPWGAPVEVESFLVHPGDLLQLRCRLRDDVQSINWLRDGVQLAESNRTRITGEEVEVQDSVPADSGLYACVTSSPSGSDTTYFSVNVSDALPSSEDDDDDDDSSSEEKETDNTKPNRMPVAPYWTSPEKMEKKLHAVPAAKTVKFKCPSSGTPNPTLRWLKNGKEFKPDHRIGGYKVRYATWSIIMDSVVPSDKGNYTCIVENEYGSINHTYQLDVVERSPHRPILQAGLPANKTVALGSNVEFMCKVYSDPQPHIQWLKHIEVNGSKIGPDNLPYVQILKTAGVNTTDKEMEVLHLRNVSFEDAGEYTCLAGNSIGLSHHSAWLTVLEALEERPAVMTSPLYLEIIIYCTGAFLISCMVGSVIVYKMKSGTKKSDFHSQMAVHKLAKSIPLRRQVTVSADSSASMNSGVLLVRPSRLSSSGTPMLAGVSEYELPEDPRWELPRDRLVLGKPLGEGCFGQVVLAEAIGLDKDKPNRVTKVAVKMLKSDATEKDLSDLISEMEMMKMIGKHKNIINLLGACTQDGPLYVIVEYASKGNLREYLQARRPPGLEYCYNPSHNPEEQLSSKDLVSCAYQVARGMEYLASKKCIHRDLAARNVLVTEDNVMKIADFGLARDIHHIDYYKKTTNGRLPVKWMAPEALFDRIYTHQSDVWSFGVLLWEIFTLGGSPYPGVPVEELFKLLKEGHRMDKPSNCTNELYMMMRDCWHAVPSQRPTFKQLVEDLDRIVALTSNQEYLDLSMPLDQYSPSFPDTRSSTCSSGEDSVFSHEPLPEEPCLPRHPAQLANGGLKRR
Assay: phosphorylation enrichment, bacterial display (enrichment ratio); higher = better substrate or ligand; peptides without Tyr show the background
// no unit string in output, number only

# SEQUENCE CHAIN, phosphorylation enrichment
data = [
    ("FLEKFYKFGSR [NNMT_Y25_YF]", 0.571),
    ("PELINYHQHYS [BTK_Y361_N365Y]", 0.769),
    ("FECKWYIPLTD [BCR_Y756_D752E_YF]", 0.497),
]

Find the measured phosphorylation enrichment of AFAEVYEGQVS [ALK_Y1131_G1128A] and report it.
0.414

Find the measured phosphorylation enrichment of HFGNNYRDVLQ [MACC1_Y803_YF] and report it.
0.711

Find the measured phosphorylation enrichment of TYAVSYLPDMS [FLNC_Y1602_T1599A] and report it.
0.428

Find the measured phosphorylation enrichment of GHNDVYISEHV [GRIN2A_Y1423] and report it.
0.393

Find the measured phosphorylation enrichment of PFFTSYPPSPD [GDAP2_Y491_YF] and report it.
0.557

Find the measured phosphorylation enrichment of PFSNPYENSLI [EPOR_Y489_YF] and report it.
0.964

Find the measured phosphorylation enrichment of VQQVIYATRAL [MYH7_Y422_G425R] and report it.
0.468

Find the measured phosphorylation enrichment of RSAGKYDVFFI [MECP2_Y120_L124F_YF] and report it.
1.02
